src = patent US11479551B2

# tested.system: PRMT5/MEP50 complex (Homo sapiens (Human), UniProt O14744)
# Sequence (O14744 2-637): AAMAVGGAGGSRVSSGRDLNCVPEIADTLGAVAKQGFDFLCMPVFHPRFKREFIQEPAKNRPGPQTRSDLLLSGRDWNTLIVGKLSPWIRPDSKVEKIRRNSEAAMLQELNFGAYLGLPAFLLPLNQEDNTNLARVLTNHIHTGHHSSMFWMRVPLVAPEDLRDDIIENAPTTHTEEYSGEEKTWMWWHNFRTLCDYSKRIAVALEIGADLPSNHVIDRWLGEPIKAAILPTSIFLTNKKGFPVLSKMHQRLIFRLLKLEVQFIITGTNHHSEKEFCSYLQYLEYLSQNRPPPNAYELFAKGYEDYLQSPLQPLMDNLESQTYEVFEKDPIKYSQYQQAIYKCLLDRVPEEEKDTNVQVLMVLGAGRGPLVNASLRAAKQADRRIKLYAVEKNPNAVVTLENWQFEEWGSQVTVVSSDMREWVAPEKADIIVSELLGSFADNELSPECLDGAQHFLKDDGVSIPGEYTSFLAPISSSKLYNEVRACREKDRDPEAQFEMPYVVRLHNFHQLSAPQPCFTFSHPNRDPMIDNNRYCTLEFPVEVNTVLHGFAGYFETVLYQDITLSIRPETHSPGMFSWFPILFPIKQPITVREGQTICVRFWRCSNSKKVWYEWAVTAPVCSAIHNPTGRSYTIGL
# Sequence (Q9BQA1 2-342 partner): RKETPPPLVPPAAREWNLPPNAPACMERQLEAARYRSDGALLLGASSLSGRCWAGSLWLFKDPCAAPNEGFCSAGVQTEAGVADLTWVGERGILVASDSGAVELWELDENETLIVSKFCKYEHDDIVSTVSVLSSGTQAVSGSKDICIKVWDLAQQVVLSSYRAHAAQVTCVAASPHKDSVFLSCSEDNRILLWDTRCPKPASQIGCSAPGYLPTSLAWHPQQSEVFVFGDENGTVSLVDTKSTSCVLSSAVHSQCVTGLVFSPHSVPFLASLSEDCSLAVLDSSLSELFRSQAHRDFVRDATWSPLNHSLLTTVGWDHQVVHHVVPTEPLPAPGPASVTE
# test.method.notes: PRMT5:MEP50 FlashPlate Assay (histone H4 peptide substrate, plus and minus MTA)
# Type: biochemical
# recorded.conditions: in the absence of MTA, read-out: IC50
# Experimental: The PRMT5 inhibitory activity of compounds of the present invention was determined using either a PRMT5:MEP50 FlashPlate Assay (Reaction Biology Corporation) or a PRMT5:MEP50 HotSpot Assay (Reaction Biology Corporation). 1. PRMT5:MEP50 FlashPlate Assay
measured.endpoint: IC50 (µM)

# count of solved cases: 5
[[record]]
smiles_record = "N#Cc1ccc2ncc(-c3ccc4c(=O)[nH]nc(CN)c4c3)n2c1"
tested_system = "PRMT5/MEP50 complex (Homo sapiens (Human), UniProt O14744)"
measured_endpoint = "IC50"
numeric_result = 3.87

[[record]]
smiles_record = "NCc1n[nH]c(=O)c2ccc(-c3cnn(CCO)c3)cc12"
tested_system = "PRMT5/MEP50 complex (Homo sapiens (Human), UniProt O14744)"
measured_endpoint = "IC50"
numeric_result = 11.6

[[record]]
smiles_record = "CN(C)c1cncc(-c2ccc3c(=O)[nH]nc(CN)c3c2)c1"
tested_system = "PRMT5/MEP50 complex (Homo sapiens (Human), UniProt O14744)"
measured_endpoint = "IC50"
numeric_result = 1.14

[[record]]
smiles_record = "NCc1n[nH]c(=O)c2ccc(-c3cncc(Oc4cccc(Cl)c4)c3)cc12"
tested_system = "PRMT5/MEP50 complex (Homo sapiens (Human), UniProt O14744)"
measured_endpoint = "IC50"
numeric_result = 0.204

[[record]]
smiles_record = "CCc1c[nH]c2ncc(-c3ccc4c(=O)[nH]nc(CN)c4c3)cc12"
tested_system = "PRMT5/MEP50 complex (Homo sapiens (Human), UniProt O14744)"
measured_endpoint = "IC50"
numeric_result = 0.291


I. Cc1ccc(Oc2cncc(-c3ccc4c(=O)[nH]nc(CN)c4c3)c2)c(C)c1Cl
II. NCc1n[nH]c(=O)c2ccc(-c3cncc(S(=O)(=O)c4ccccc4)c3)cc12
III. NCc1n[nH]c(=O)c2ccc(-c3cncc(Oc4ccccn4)c3)cc12
IV. Cn1ncc(-c2ccc3c(=O)[nH]nc(CN)c3c2)c1-c1ccc(Cl)cc1C#N
Could you please sort these 4 entries by IC50 from high to low? Put the labels in the requested order and write them down. III, II, I, IV

1. NCc1n[nH]c(=O)c2ccc(-c3cnc4ccccn34)cc12
2. Cc1ccn2c(-c3ccc4c(=O)[nH]nc(CN)c4c3)cnc2c1
3. N#Cc1cncc(-c2ccc3c(=O)[nH]nc(CN)c3c2)c1
4. Cn1ncc(-c2ccc3c(=O)[nH]nc(CN)c3c2)c1-c1ccccc1
Sort entries by IC50 from minimum to maximum value. State the ranking by listing the labels in the requested order. 4, 1, 2, 3
(4: 0.045 µM, 1: 0.926 µM, 2: 4.75 µM, 3: 72.1 µM)

I. CC(=O)N1CCn2ncc(-c3ccc4c(=O)[nH]nc(CN)c4c3)c2C1
II. N#Cc1cc(Cl)ccc1-c1cncc(-c2ccc3c(=O)[nH]nc(CN)c3c2)c1
III. Cc1ccc2ncc(-c3ccc4c(=O)[nH]nc(CN)c4c3)n2c1
Please give the order of these compounds when sorted by IC50, largest value leading. Returns: the labels arranged in the requested order. I, III, II
